Tested on: Pentobarbital-Induced Cardiac Failure in the Dog
Experiment: Pentobarbital-induced Cardiac Failure in the Dog
Assay type: in vivo
Conditions: Canis lupus familiaris, iv, anesthetized dog, read-out: ED50 (dose i.v. to give a 50% increase in dP/dt)
API: label(entry) gives y if the entry's ED50 is strictly smaller than 0.05 mg/kg; on equality or larger values it gives n.

State whether 0.05 mg/kg exceeds ED50 recorded for Cc1nc(O)c(Br)c(NCCc2ccccc2)n1 [Example 9] .
y

State whether 0.05 mg/kg exceeds ED50 recorded for Cc1nc(O)c(C(C)C)c(NCC2CC2)n1 [Example 17] .
n

State whether 0.05 mg/kg exceeds ED50 recorded for Cc1nc(O)c(C(C)C)c(NCc2cccnc2)n1 [Example 7] .
n

State whether 0.05 mg/kg exceeds ED50 recorded for Cc1nc(O)c(Br)c(NCc2cccnc2)n1 [Example 1] .
y

State whether 0.05 mg/kg exceeds ED50 recorded for Cc1nc(O)c(Cl)c(NCCc2ccccc2)n1 [Example 4] .
y

State whether 0.05 mg/kg exceeds ED50 recorded for CCNc1nc(C)nc(O)c1C(C)C [Example 14] .
y

State whether 0.05 mg/kg exceeds ED50 recorded for CCNc1nc(C)nc(O)c1C [Example 12] .
y

State whether 0.05 mg/kg exceeds ED50 recorded for Cc1nc(O)c(Cl)c(NCc2cccnc2)n1 [Example 3] .
y

State whether 0.05 mg/kg exceeds ED50 recorded for CCNc1[nH]c(C)nc(=O)c1Br [Example 15] .
y
